# system: human ether-à-go-go-related gene (hERG) potassium channel (human, UniProt Q12809);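 note: peak tail current of the secondary pulse compared with the same well before compound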
# Sequence (Q12809 whole entry, looked up): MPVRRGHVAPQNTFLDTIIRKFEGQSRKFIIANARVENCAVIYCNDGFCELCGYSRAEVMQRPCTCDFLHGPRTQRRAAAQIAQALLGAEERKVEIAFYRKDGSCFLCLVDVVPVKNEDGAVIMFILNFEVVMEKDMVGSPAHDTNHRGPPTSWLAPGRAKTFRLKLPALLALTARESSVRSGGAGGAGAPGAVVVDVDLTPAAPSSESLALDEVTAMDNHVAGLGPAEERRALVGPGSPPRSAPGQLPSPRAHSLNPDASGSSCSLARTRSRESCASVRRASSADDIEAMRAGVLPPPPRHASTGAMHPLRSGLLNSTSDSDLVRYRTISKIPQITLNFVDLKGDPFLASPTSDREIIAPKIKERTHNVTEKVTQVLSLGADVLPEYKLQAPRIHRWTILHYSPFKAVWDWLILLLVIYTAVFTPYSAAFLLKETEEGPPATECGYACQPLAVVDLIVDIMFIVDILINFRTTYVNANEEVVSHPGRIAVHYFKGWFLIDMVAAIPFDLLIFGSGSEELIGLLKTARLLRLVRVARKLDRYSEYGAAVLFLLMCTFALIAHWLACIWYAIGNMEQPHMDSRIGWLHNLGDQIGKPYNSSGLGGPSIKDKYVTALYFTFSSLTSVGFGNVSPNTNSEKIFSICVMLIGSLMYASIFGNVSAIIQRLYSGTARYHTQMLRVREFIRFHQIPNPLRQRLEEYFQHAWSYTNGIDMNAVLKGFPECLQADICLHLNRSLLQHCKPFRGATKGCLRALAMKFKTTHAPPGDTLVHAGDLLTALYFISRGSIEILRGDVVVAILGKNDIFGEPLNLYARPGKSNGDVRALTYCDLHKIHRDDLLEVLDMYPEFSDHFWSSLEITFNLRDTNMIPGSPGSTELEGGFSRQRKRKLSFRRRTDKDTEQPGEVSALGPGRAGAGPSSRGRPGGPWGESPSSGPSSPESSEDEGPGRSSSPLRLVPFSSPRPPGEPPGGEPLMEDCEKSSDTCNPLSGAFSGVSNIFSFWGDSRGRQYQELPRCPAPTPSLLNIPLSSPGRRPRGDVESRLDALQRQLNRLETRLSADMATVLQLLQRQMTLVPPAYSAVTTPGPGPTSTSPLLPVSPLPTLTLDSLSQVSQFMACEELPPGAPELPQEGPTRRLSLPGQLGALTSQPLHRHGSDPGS
# assay: primary screen, population patch clamp on CHO cells stably expressing hERG; higher = less effect of the substance
About 14,000 (4.5%) of roughly 310,000 compounds showed an effect of 50% or more. The effect is printed as a negative number. The sample as a whole holds a higher share of strong results than the screen did.
Listing of recorded hERG current change (%, negative = inhibition) at 10uM by entry.
measuredProperty: hERG current change (%, negative = inhibition) at 10uM (%)

{"columns": ["compound", "reportedValue"],
 "data": [
  ["O=C(Nc1cc(F)ccc1F)C1CCCN(c2ncnc3c2nc2n3CCCCC2)C1 (stereo not shown)", -59.5],
  ["COc1ccccc1NC(=O)C1CCCN(c2ncnc3c2nc2n3CCCCC2)C1 (stereo not shown)", -45.5],
  ["CCCCn1c(=NC(=O)c2ccco2)c(C(=O)OCC)cc2c(=O)n3cccc(C)c3nc21", -81.6],
  ["O=C(Nc1ccc(F)cc1)C1CCN(c2ncnc3c2nc2n3CCCCC2)CC1", -7.35],
  ["O=C(NCC1CCOCC1)c1ccc2nc(Cc3cccc(Cl)c3)oc2c1", -12.8],
  ["COc1ccc(Cl)cc1NC(=O)C1CCCN(c2ncnc3c2nc2n3CCCCC2)C1 (stereo not shown)", -37.6],
  ["COc1ccc(C(C(=O)NC2CCCCC2)N2CCC3(CC2)OCCO3)cc1 (stereo not shown)", -8.32],
  ["Nc1nc2nonc2nc1N", 15.3],
  ["CN(CCCN1CCOCC1)C(=O)c1ccc2nc(Cc3cccc(Cl)c3)oc2c1", -6.26],
  ["CN(CC1CCOCC1)C(=O)c1ccc2nc(Cc3cccc(Cl)c3)oc2c1", -69.7]
]}

Cited source for all entries: paper PMC4336329
